Tested on: CASK
Conditions: concentration: 1 μM, replicates: in singlicate; n = 1;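 note: KINOMEscan kinase panel screen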
PROPERTY_LABEL: %Inh (%)
Answers are plain numbers, in %.

Completed entries (count: 5):
O=C(O)C(F)(F)F.O=c1[nH]ccc2nc(N[C@@H]3CCNC3)nc(Nc3cc(Cl)cc(Cl)c3)c12 = 19
Cc1ccc(O)cc1Nc1ccnc2ccc(C(C)(C)C)cc12 = 25
Cc1ccc(NC(=O)c2cccc(N3CCCCC3)c2)cc1-c1ccc(C(=O)NCC2CC2)cc1 = 18
Cl.Cl.NC(CNC(=O)c1cc(Br)c(-c2ccnc3[nH]ccc23)s1)c1ccccc1 (stereo not drawn) = 38
CCNC(=O)/C=C/c1n[nH]c2cc(Sc3ccccc3C(=O)NC)ccc12 = 40

Hi, could you look up %Inh for each item in my list?
1. COc1ccc(C2=C(Nc3cccc(O)c3)C(=O)NC2=O)cc1
2. Cc1cc(-c2ccnc(Nc3cccc(C#N)c3)n2)cc(C)c1O
3. CSc1ccc(NC2=C(c3ccc(Cl)cc3)C(=O)NC2=O)cc1
4. Cc1cc(-c2c(-c3ccc(F)cc3)ncn2CCCN2CCOCC2)nc(N)n1

OUTPUT:
39
0
0
33

====

Test system: LTK
Conditions: concentration: 1 μM, replicates: in singlicate; n = 1
Is %Inh at least 6%? Then YES. If not, NO.

Examples from the recorded data:
O=C(O)C(F)(F)F.O=c1[nH]ccc2nc(N[C@@H]3CCNC3)nc(Nc3cc(Cl)cc(Cl)c3)c12 = YES
COc1ccc(C2=C(Nc3cccc(O)c3)C(=O)NC2=O)cc1 = YES
Cl.Cl.NC(CNC(=O)c1cc(Br)c(-c2ccnc3[nH]ccc23)s1)c1ccccc1 (centres unmarked) = NO
CCn1c(-c2nonc2N)nc2c(-c3ccccc3)ncc(OCCCN)c21.O=C(O)C(F)(F)F.O=C(O)C(F)(F)F = NO
CC(C)(C)c1ccc(C(=O)Nc2cn3cc(-n4ccnc4)ccc3n2)cc1 = NO

INPUT: # bool: %Inh of CC(=O)Nc1cn2nc(Oc3cccc(NC(=O)c4cccc(C(F)(F)F)c4)c3)ccc2n1 >= 6%
OUTPUT: NO

INPUT: # bool: %Inh of CN(c1ccc2c(c1)nc(NCc1ccccc1)n2C)c1ccnc(Nc2ccc(CS(C)(=O)=O)cc2)n1.Cl >= 6%
OUTPUT: YES

====

System: PIK4CB
Construct: gene PI4KB
Settings: concentration: 1 μM, replicates: in singlicate; n = 1
Assign %Inh to each entry below.
Give bare numbers, in %.

Completed entries (count: 4):
CCn1cnc2c(NCc3ccccc3)ncnc21 [SKF-96418] = 4
CN(c1ccc(NC(=O)N2CCN(CCCN3CCOCC3)CC2)cc1)c1ccnc(Nc2ccc(CS(C)(=O)=O)cc2)n1.Cl [GW830899] = 100
Cc1ccc(NC(=O)c2ccc(Cl)c(Cl)c2)cc1-c1ccc(C(=O)Nc2ccncc2)cc1 [GSK1398460] = 3
Cl.Cl.NC(CNC(=O)c1cc(Br)c(-c2ccnc3[nH]ccc23)s1)c1ccccc1 (centres unmarked) [GSK1322949] = 0

Could you now look at the following molecule, please?
The reported %Inh of the molecule CCOc1nccc(-c2c(-c3ccc(F)cc3)ncn2C2CCNCC2)n1 [SB-249175] was 3

====

Tested on: SNRK
Conditions: concentration: 1 μM, replicates: in singlicate; n = 1
Assign %Inh to each entry below.
One number for each entry, in %.

Completed entries (count: 5):
O=C(Nc1n[nH]c2cc(-c3cccs3)ccc12)C1CC1 [SB-731284] = 42
COc1ccc(C2=C(Nc3cccc(O)c3)C(=O)NC2=O)cc1 [SB-390766] = 0
CCn1cnc2c(NCc3ccccc3)ncnc21 [SKF-96418] = 0
CN(C)CCOc1ccc(-c2cc(-c3ccc(Cl)c(O)c3)c(-c3ccncc3)[nH]2)cc1.Cl.Cl [SB-684387] = 9
O=C(Nc1c(F)cccc1F)c1cc(C(=O)c2ccccc2F)c[nH]1 [GSK1326180] = 0

Hi, could you look up %Inh for each item in my list?
1. Nc1cccc(-c2ccc3c(N)n[nH]c3c2)c1 [GSK2193613]
2. COc1cc(Nc2ccnc3cc(-c4ccncc4)ccc23)cc(OC)c1OC.Cl [GW494610]
3. Cc1ccc(C)c(NC(=O)Nc2ccc(C)c(-c3ccc(C(=O)Nc4ccncc4)cc3)c2)c1 [GSK1398473]
4. c1ccc(Oc2ccc(Nc3ccnc4cc(-c5ccc(CN6CCCCC6)o5)ccc34)cc2)nc1 [GW567143]

OUTPUT:
1. 0
2. 0
3. 5
4. 0

====

Assign %Inh to each entry below.
Tested on: PIP5K2B
Details: concentration: 1 μM, replicates: in singlicate; n = 1

Cl.Cl.NCC(NC(=O)c1cc(-c2cccnc2)c(-c2ccnc3[nH]ccc23)s1)c1ccccc1 (stereo not shown) = 10%
CCNc1nccc(-c2c(-c3ccc(F)cc3)ncn2C2CCN(C)CC2)n1 = 0%
Cc1ccc(O)cc1Nc1ccnc2ccc(C(C)(C)C)cc12 = 0%

Hi, could you look up %Inh for each item in my list?
1. COc1ccc(C2=C(Nc3cccc(O)c3)C(=O)NC2=O)cc1
2. Cc1ccc(-c2ccc3occ(-c4ccc(S(C)=O)cc4)c3c2)nn1 (stereo not shown)

OUTPUT:
1. 0%
2. 17%

====

System: NEK5
Details: concentration: 1 μM, replicates: in singlicate; n = 1
Each record is given Satisfied if its reported %Inh is strictly below 10%. Records at or above 10% are given Not satisfied.

INPUT: Please indicate whether the reported %Inh of Cl.O=C(Nc1ccc(Oc2ccc3[nH]c(NC(=O)c4ccco4)nc3c2)cc1)Nc1cc(C(F)(F)F)ccc1F is strictly below 10%.
OUTPUT: Satisfied

INPUT: Please indicate whether the reported %Inh of COc1cccc(CC(=O)N2CCc3cc(-c4cn(C)c5ncnc(N)c45)ccc32)c1 is strictly below 10%.
OUTPUT: Not satisfied

INPUT: Please indicate whether the reported %Inh of CCNc1nccc(-c2c(-c3ccc(F)cc3)ncn2C2CCN(C)CC2)n1 is strictly below 10%.
OUTPUT: Satisfied

INPUT: Please indicate whether the reported %Inh of COc1cccc2c(-c3ccncc3)c(-c3ccc(F)cc3)nn12 is strictly below 10%.
OUTPUT: Satisfied

INPUT: Please indicate whether the reported %Inh of CN1CCN(Cc2ccc(NC(=O)Nc3ccc(N(C)c4ccnc(Nc5ccc(CS(C)(=O)=O)cc5)n4)cc3)cc2)CC1.Cl is strictly below 10%.
OUTPUT: Not satisfied

INPUT: Please indicate whether the reported %Inh of Cc1cc(-c2c(-c3ccc(F)cc3)ncn2CCCN2CCOCC2)nc(N)n1 is strictly below 10%.
OUTPUT: Satisfied

====

Tested on: MAPKAPK2
Conditions: concentration: 1 μM, replicates: in singlicate; n = 1
PROPERTY_LABEL: %Inh (%)
Answers are plain numbers, in %.

Completed entries (count: 2):
Cl.N#CCc1ccc(Nc2nccc(Nc3ccc(Oc4ccccc4)cc3)n2)cc1 [GW639905] = 0
CCOc1nccc(-c2c(-c3ccc(F)cc3)ncn2C2CCNCC2)n1 [SB-249175] = 0

Hi, could you look up %Inh for each item in my list?
1. CN(C)CCOc1ccc(-c2cc(-c3ccc(Cl)c(O)c3)c(-c3ccncc3)[nH]2)cc1.Cl.Cl [SB-684387]
2. NCCC(NC(=O)c1cc(Br)c(-c2ccnc3[nH]ccc23)s1)c1ccccc1.O=C(O)C(F)(F)F.O=C(O)C(F)(F)F (centres unmarked) [GSK1307810]
3. CCNC(=O)/C=C/c1n[nH]c2cc(Sc3ccccc3C(=O)NC)ccc12
4. CN(C)CCNS(=O)(=O)c1ccc(-c2ccnc3[nH]ccc23)cc1 [GSK977620]
5. Cc1ccc(O)cc1Nc1ccnc2ccc(C(C)(C)C)cc12 [GW856805]
6. CN(c1ccc(F)c(NC(=O)c2cccc(OC(C)(C)C#N)c2Cl)c1)c1ccc2nc(NC(=O)C3CC3)sc2n1

OUTPUT:
1: 12; 2: 0; 3: 12; 4: 0; 5: 0; 6: 0

====

System: TRKA
Construct: gene NTRK1
Settings: concentration: 1 μM, replicates: in singlicate; n = 1
Assign %Inh to each entry below.
Include the unit right after the number.

Nc1ncc(-c2cn[nH]c2)c2scc(-c3ccc4c(c3)CCN4C(=O)Cc3ccccc3)c12 = 96.8%
Nc1ncnc2scc(-c3ccc(NC(=O)Cc4cc(F)ccc4F)cc3)c12.O=C(O)C(F)(F)F = 62%
COc1ccc(C)c(Nc2ccnc(Nc3ccc(-c4cnc[nH]4)cc3)n2)c1.Cl = 0%

The reported %Inh of the compound Cc1ccc(NC(=O)c2cccc(N3CCCCC3)c2)cc1-c1ccc(C(=O)NCC2CC2)cc1 was 0%

====

System: CDK2
Conditions: concentration: 1 μM, replicates: in singlicate; n = 1
PROPERTY_LABEL: %Inh (%)
Answers are plain numbers, in %.

Completed entries (count: 5):
Cc1ccccc1CC(=O)N1CCc2cc(-c3cn(C)c4ncnc(N)c34)ccc21 [GSK2603346] = 6
Cc1ccc(-c2ccc3occ(-c4ccc(S(C)=O)cc4)c3c2)nn1 (stereo not drawn) = 36
Fc1cc(Cl)ccc1Nc1ccnc2cc(-c3ccc(CN4CCSCC4)o3)ccc12 [GW560106] = 0
N#CC1(c2cccc(C(=O)Nc3cccc(Oc4ccc5nc(NC(=O)C6CC6)sc5n4)c3)c2)CC1 = 0
CS(=O)(=O)c1cccc(CNc2nc(Nc3ccc4c(c3)CCC(=O)N4)ncc2C(F)(F)F)c1 = 30

Hi, could you look up %Inh for each item in my list?
1. COC(=O)Nc1nc2ccc(Oc3ccc(CC(=O)Nc4cc(C(F)(F)F)ccc4F)cc3)cc2[nH]1 [GW680903]
2. COc1ccc(C)c(Nc2ccnc(Nc3ccc(-c4cnc[nH]4)cc3)n2)c1.Cl [GW784041]
3. COc1cccc(NC(=O)NCCNc2ccnc(Nc3ccc(F)cc3)n2)c1 [GSK1379879]
4. CN(c1ccc(NC(=O)Nc2cccc(Cl)c2)cc1)c1ccnc(N)n1.Cl [GW830707]

OUTPUT:
[0, 0, 0, 9]
